Consider the following compounds and their measured Cocklebur plant response rating readings.
- Tested on: cocklebur
- PROTOCOL NOTES: Test B pre/postemergence cocklebur
- Format: in vivo, Xanthium strumarium
- RUN CONDITIONS: Postemergence, Rate 250 g/ha; scale 0 to 10, 0 no effect, 10 complete control
Please reply with the number alone, leaving off any unit.

Known results for compounds:
ITEM SMILES: CC(C)Oc1cc(-n2c(=O)on(C(=O)N(c3ccc(F)cc3)C(C)C)c2=O)c(Cl)cc1Cl
OBSERVED PROPERTY: Cocklebur plant response rating
READOUT VALUE: 0

ITEM SMILES: CC(C)N(C(=O)n1oc(=O)n(C2CCCCC2)c1=O)c1ccc(Cl)cc1
OBSERVED PROPERTY: Cocklebur plant response rating
READOUT VALUE: 2

ITEM SMILES: Cc1ccccc1Cn1c(=O)on(C(=O)N(c2ccc(F)cc2)C(C)C)c1=O
OBSERVED PROPERTY: Cocklebur plant response rating
READOUT VALUE: 1

ITEM SMILES: CC(C)N(C(=O)n1oc(=O)n(-c2ccc(OC(F)(F)F)cc2)c1=O)C1=CCOCC1
OBSERVED PROPERTY: Cocklebur plant response rating
READOUT VALUE: 0

ITEM SMILES: Cc1ccccc1-n1c(=O)on(C(=O)N(c2ccc(C#N)cc2)C(C)C)c1=O
OBSERVED PROPERTY: Cocklebur plant response rating
READOUT VALUE: 0

Lab note: Cc1nn(C)c(C)c1-n1c(=O)on(C(=O)N(c2ccccc2)C(C)C)c1=O gave Cocklebur plant response rating of 3

Lab note: CCc1ccccc1-n1c(=O)on(C(=O)N(c2ccc(F)cc2F)C(C)C)c1=O gave Cocklebur plant response rating of 2

Lab note: C=CCn1c(=O)on(C(=O)N(c2ccccc2)C(C)C)c1=O gave Cocklebur plant response rating of 2

Lab note: COc1ccc(-n2c(=O)on(C(=O)N(C3=CCOCC3)C(C)C)c2=O)cc1 gave Cocklebur plant response rating of 0

Lab note: CCN(CC)C(=O)n1oc(=O)n(-c2ccc(OC)cc2)c1=O gave Cocklebur plant response rating of 0

Lab note: CCN(C(=O)n1oc(=O)n(-c2c(C)cc(C)cc2C)c1=O)C1CCCCC1 gave Cocklebur plant response rating of 0

Lab note: CCc1noc(CC)c1-n1c(=O)on(C(=O)N(c2ccc(F)cc2)C(C)C)c1=O gave Cocklebur plant response rating of 0
